# TGT: Tyrosine-protein phosphatase non-receptor type 1 (Homo sapiens)
# Sequence (whole entry): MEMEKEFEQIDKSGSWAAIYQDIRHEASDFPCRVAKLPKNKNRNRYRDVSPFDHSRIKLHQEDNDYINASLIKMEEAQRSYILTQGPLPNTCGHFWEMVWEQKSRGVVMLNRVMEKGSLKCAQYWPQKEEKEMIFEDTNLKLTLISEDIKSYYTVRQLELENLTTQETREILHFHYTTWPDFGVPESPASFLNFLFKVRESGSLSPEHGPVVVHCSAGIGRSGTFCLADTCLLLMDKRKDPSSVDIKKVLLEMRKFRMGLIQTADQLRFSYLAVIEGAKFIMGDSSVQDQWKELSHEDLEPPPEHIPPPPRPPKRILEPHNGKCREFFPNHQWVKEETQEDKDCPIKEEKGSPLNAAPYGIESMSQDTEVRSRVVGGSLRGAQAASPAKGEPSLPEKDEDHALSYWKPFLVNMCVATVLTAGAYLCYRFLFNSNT
# MEASUREMENT NOTES: Percent inhibition against Protein-tyrosine phosphatase 1B at a 1 uM concentration
VALUE KIND: inhibition (%)

In the examples that follow, each entry is paired with its recorded inhibition.
CCCCCNC(=O)[C@H](Cc1ccc(OCC(=O)O)c(C(=O)NO)c1)NC(=O)[C@H](Cc1ccccc1)NC(=O)OC(C)(C)C    5
CCCCCNC(=O)[C@H](Cc1ccc(OCC(=O)O)c(-c2cc(O)no2)c1)NC(=O)[C@H](Cc1ccccc1)NC(=O)OC(C)(C)C    1
CCCCCNC(=O)[C@H](Cc1ccc(OCC(=O)OC)c(C(=O)O)c1)NC(=O)[C@H](Cc1ccccc1)NC(=O)OC(C)(C)C    3
CCCCCNC(=O)[C@H](Cc1ccc(OCc2nn[nH]n2)c(C(=O)O)c1)NC(=O)[C@H](Cc1ccccc1)NC(=O)OC(C)(C)C    1
CCCCCNC(=O)[C@H](Cc1ccc(OCC(=O)NO)c(C(=O)O)c1)NC(=O)[C@H](Cc1ccccc1)NC(=O)OC(C)(C)C    6

[A] CCCCCNC(=O)[C@H](Cc1ccc(OCC(=O)O)c(C#CC(=O)O)c1)NC(=O)[C@H](Cc1ccccc1)NC(=O)OC(C)(C)C
[B] CCCCCNC(=O)[C@H](Cc1ccc(OCC(=O)O)c(-c2nn[nH]n2)c1)NC(=O)[C@H](Cc1ccccc1)NC(=O)OC(C)(C)C
Out of A and B , name the one with the higher inhibition. Respond with the label that goes with your answer.
B
(B: 27%, A: 1%)

====

# TGT: Tyrosine-protein phosphatase non-receptor type 11 (Homo sapiens) (UniProt Q06124)
# MEASUREMENT NOTES: Percent inhibition against Tyrosine phosphatase SHP2 at 100 uM
VALUE KIND: inhibition (%)

# annotated cases, reported inhibition shown
CCCCCNC(=O)[C@H](Cc1ccc(OCC(=O)OC)c(C(=O)O)c1)NC(=O)[C@H](Cc1ccccc1)NC(=O)OC(C)(C)C    0
CCCCCNC(=O)[C@H](Cc1ccc(OCC(N)=O)c(C(=O)O)c1)NC(=O)[C@H](Cc1ccccc1)NC(=O)OC(C)(C)C    0
CCCCCNC(=O)[C@H](Cc1ccc(OCC(=O)NO)c(C(=O)O)c1)NC(=O)[C@H](Cc1ccccc1)NC(=O)OC(C)(C)C    4

[P] CCCCCNC(=O)[C@H](Cc1ccc(OCC(=O)O)c(C(=O)OC)c1)NC(=O)[C@H](Cc1ccccc1)NC(=O)OC(C)(C)C
[Q] CCCCCNC(=O)[C@H](Cc1ccc(OCc2nn[nH]n2)c(C(=O)O)c1)NC(=O)[C@H](Cc1ccccc1)NC(=O)OC(C)(C)C
In terms of reported inhibition, does P or Q have the smaller number? Refer to your chosen item by its label in the answer.
P

[I] CCCCCNC(=O)C(Cc1ccc(OCC(=O)O)c(C#N)c1)NC(=O)CCC(=O)O (configuration not stated)
[II] CCCCCNC(=O)[C@H](Cc1ccc(OCC(=O)O)c(-c2nn[nH]n2)c1)NC(=O)[C@H](Cc1ccccc1)NC(=O)OC(C)(C)C
# min-compare on inhibition between I and II Could you answer with the label of the item you picked?
I
(I: 0%, II: 1%)

====

# TGT: Tyrosine-protein phosphatase non-receptor type 1 (Homo sapiens, UniProt P18031)
# MEASUREMENT NOTES: Inhibitory constant against Protein-tyrosine phosphatase 1B
VALUE KIND: Ki (µM)

CCCCCNC(=O)[C@H](Cc1ccc(OCC(=O)O)c(C(=O)O)c1)NC(=O)[C@H](Cc1ccccc1)NC(=O)OC(C)(C)C    2
CCCCCNC(=O)[C@H](Cc1ccc(OCC(=O)O)c(-c2nn[nH]n2)c1)NC(=O)[C@H](Cc1ccccc1)NC(=O)OC(C)(C)C    2

====

# TGT: Tyrosine-protein phosphatase non-receptor type 1 (Homo sapiens, UniProt P18031)
# Sequence (P18031 whole entry): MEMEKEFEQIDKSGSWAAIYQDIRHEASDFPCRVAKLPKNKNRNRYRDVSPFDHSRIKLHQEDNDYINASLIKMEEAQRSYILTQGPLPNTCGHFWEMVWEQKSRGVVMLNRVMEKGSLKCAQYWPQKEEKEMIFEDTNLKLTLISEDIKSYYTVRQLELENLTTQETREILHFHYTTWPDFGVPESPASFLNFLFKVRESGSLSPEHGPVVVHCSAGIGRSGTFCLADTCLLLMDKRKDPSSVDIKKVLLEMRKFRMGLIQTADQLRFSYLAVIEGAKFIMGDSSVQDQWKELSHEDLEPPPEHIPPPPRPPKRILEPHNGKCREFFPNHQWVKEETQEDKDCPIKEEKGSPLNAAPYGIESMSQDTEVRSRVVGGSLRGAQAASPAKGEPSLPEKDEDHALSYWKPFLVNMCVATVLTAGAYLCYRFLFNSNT
# MEASUREMENT NOTES: Inhibition constant of compound against Protein-tyrosine phosphatase 1B
VALUE KIND: Ki (µM)
Response body: numeric value in µM, unit text excluded.

Identify measured Ki corresponding to CCCCCNC(=O)C(Cc1ccc(OCC(=O)O)c(C(=O)O)c1)NC(=O)CCC(=O)O (stereo unspecified)
6.5

====

# TGT: UniProtKB P10586
# Sequence (P10586 whole entry): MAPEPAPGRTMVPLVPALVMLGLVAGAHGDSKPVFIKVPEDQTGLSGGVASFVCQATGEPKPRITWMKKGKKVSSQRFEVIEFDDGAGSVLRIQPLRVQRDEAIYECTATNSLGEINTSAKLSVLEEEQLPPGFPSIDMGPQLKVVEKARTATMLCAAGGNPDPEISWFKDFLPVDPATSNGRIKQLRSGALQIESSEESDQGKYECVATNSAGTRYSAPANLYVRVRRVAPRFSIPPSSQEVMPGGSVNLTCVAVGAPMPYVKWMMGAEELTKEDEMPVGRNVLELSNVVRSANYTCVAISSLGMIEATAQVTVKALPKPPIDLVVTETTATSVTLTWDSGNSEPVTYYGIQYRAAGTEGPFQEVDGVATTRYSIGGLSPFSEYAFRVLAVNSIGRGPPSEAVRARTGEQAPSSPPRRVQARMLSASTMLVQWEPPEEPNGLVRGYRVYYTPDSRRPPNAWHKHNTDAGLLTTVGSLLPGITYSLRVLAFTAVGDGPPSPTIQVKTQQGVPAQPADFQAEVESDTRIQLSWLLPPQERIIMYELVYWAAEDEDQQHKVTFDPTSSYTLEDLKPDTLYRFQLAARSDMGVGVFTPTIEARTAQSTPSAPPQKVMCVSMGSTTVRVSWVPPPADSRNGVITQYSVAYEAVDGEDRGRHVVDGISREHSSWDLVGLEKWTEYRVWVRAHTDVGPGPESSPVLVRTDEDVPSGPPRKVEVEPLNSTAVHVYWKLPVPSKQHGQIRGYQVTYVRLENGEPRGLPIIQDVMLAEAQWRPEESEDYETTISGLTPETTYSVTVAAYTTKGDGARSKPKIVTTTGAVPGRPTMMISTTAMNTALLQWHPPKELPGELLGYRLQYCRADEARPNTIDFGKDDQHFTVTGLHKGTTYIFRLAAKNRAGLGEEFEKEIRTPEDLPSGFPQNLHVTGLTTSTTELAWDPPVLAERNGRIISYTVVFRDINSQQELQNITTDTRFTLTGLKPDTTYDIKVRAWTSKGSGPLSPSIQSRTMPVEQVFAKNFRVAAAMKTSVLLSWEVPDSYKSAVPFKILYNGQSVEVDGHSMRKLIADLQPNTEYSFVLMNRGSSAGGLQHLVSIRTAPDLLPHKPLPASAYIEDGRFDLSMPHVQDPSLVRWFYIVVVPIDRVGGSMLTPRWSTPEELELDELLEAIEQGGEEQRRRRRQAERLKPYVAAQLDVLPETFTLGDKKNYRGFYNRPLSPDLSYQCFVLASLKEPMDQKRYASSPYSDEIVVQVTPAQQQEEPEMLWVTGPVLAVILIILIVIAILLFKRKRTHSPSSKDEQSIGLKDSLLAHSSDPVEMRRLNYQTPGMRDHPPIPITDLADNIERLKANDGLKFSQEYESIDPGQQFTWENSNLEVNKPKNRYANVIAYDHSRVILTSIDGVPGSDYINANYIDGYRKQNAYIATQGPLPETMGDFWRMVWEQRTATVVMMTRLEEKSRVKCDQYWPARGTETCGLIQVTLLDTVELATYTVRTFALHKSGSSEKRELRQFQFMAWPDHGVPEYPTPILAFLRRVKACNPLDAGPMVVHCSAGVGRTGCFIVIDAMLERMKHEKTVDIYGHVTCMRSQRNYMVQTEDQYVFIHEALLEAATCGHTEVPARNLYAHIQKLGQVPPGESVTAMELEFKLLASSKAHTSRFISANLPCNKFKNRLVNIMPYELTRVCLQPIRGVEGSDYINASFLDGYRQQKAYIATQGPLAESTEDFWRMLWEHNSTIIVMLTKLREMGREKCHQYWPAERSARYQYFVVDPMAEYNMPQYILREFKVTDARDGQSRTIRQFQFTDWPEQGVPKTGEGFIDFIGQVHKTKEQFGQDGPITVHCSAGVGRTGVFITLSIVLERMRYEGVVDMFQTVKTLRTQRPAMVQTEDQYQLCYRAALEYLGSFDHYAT
# MEASUREMENT NOTES: Percent inhibition against Protein-tyrosine phosphatase Lar at 100 uM
VALUE KIND: inhibition (%)

Reference set (2 entries):
CCCCCNC(=O)[C@H](Cc1ccc(OCC(=O)O)c(C(=O)O)c1)NC(=O)[C@H](Cc1ccccc1)NC(=O)OC(C)(C)C    0
CCCCCNC(=O)C(Cc1ccc(OCC#N)c(C(=O)O)c1)NC(=O)CCC(=O)O (centres undefined)    0

[a] CCCCCNC(=O)[C@H](Cc1ccc(OCC(=O)O)c(-c2cc(O)no2)c1)NC(=O)[C@H](Cc1ccccc1)NC(=O)OC(C)(C)C
[b] CCCCCNC(=O)[C@H](Cc1ccc(OCC(=O)O)c(C(=O)NO)c1)NC(=O)[C@H](Cc1ccccc1)NC(=O)OC(C)(C)C
Name the one with the greater inhibition value, either a or b as given. Your answer should be the label of the entry you select.
b

====

# TGT: Tyrosine-protein phosphatase non-receptor type 1 (Homo sapiens)
# Sequence (whole entry): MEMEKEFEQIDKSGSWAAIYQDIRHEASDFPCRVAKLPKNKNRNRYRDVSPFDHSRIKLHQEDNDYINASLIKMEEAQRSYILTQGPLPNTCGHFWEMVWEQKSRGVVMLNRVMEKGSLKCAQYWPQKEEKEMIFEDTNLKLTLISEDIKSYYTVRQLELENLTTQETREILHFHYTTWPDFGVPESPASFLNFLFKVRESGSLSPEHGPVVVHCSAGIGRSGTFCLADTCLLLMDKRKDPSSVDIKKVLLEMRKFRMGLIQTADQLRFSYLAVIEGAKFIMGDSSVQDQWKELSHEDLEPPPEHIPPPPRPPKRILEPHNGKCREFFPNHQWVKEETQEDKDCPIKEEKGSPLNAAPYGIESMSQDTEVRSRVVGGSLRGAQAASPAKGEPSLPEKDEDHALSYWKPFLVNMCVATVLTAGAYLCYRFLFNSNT
# MEASUREMENT NOTES: Percent inhibition against Protein-tyrosine phosphatase 1B at a 100 uM concentration
VALUE KIND: inhibition (%)

Please review the entries below; each comes with its answer.
CCCCCNC(=O)[C@H](Cc1ccc(OCC(=O)NO)c(C(=O)O)c1)NC(=O)[C@H](Cc1ccccc1)NC(=O)OC(C)(C)C    30
CCCCCNC(=O)[C@H](Cc1ccc(OCC(=O)O)c(C(=O)NO)c1)NC(=O)[C@H](Cc1ccccc1)NC(=O)OC(C)(C)C    54
CCCCCNC(=O)[C@H](Cc1ccc(OCC(N)=O)c(C(=O)O)c1)NC(=O)[C@H](Cc1ccccc1)NC(=O)OC(C)(C)C    0
CCCCCNC(=O)[C@H](Cc1ccc(OCC(=O)O)c(CCC(=O)O)c1)NC(=O)[C@H](Cc1ccccc1)NC(=O)OC(C)(C)C    18
CCCCCNC(=O)[C@H](Cc1ccc(OCC(=O)O)c(C#CC(=O)O)c1)NC(=O)[C@H](Cc1ccccc1)NC(=O)OC(C)(C)C    16

[A] CCCCCNC(=O)[C@H](Cc1ccc(OCC(=O)O)c(-c2cc(O)no2)c1)NC(=O)[C@H](Cc1ccccc1)NC(=O)OC(C)(C)C
[B] CCCCCNC(=O)[C@H](Cc1ccc(OCc2nn[nH]n2)c(C(=O)O)c1)NC(=O)[C@H](Cc1ccccc1)NC(=O)OC(C)(C)C
Between item A and item B , which reported inhibition is smaller? Selection: enter the item's label.
A
